Tested on: NCI-H226 lung
Assay: NCI-60 one-dose screen, 48 h
Conditions: 10 µM unless noted
This is part of a sample that, as a whole, favours compounds with a hit. Of some 83,000 tested, about 20% had one in any assay. Calls of active or inactive are those of the source. How the source made its calls: active means growth percent below 10; inactive means the rest.
Respond with a class label; see Y = active, N = inactive

IN: For CCCCN(CCCC)CCCn1c(-c2ccccc2)ccc1-c1ccccc1 , which call appears in the assay record?
OUT: N

IN: Item: COc1cc(Nc2cc(C)nc(N3CCN(c4ccnc5cc(Cl)ccc45)CC3)n2)cc(OC)c1
OUT: N

IN: Likewise for CC[N+](CC)=c1sc2c(s1)C(c1ccc(Cl)cc1)Oc1ccc(Cl)cc1-2 (stereo not drawn) ?
OUT: N

IN: And then CCCc1cc(=O)n2c(C(=O)Nc3ccc(F)cc3)c(C(=O)Nc3ccc(F)cc3)sc2n1 , what is it?
OUT: N

IN: Now try CC(C)(C)c1cc(C(C)(C)C)cc(S(=O)(=O)Nc2cc3ccccc3cc2C(=O)NCCN)c1 .
OUT: N

IN: Likewise for CC1=C[C@H]2c3c(c(O)c(O)c4oc5c(C)cccc5c(=O)c34)[C@H](c3cc(O)c(O)c4oc5c(C)cccc5c(=O)c34)[C@H]2C(C)(C)C1 ?
OUT: Y

IN: Next molecule up: COc1ccc(Nc2nc(SC)nc(-c3cccc([N+](=O)[O-])c3)c2C#N)cc1
OUT: N

IN: Also CCN(CC)c1ccc(/C=N\NC(=O)/C=C/C=C/c2ccc3c(c2)OCO3)c(O)c1 ?
OUT: N

IN: Same lookup for COc1cccc2c1C(=O)c1c(O)c3c(c(O)c1C2=O)C[C@](O)(C(=O)CO)C[C@H]3O[C@@H]1C[C@@H](NC(=O)CCCCCN(C)C2(c3ccc(F)cc3)CC3CCC2C3)[C@H](O)[C@@H](C)O1 (stereo partly drawn) , please.
OUT: N

IN: Next up: NC(CSC(c1ccccc1)(c1ccccc1)c1ccc(Cl)cc1)C(=O)O (stereo not drawn)
OUT: N

IN: Try the molecule O=C(N/N=C/c1c[nH]c2ccccc12)c1cc(-c2ccccc2)on1
OUT: N

IN: // same read-out, input: c1ccc(-c2cc3n4c(-c5ccccc5)nn(-c5ccccc5)c4cnc-3n2)cc1
OUT: N

IN: Subsequent entry: CSc1nc(NCCO)c(C#N)c(-c2cccc([N+](=O)[O-])c2)n1
OUT: N

IN: Again, but for CC[C@@H](C(=O)[C@@H](C)[C@@H](O)[C@H](C)[C@@H]1O[C@@H]([C@@H](CC)C(=O)O)CC[C@@H]1C)[C@H]1OC2(C=C[C@@H](O)[C@]3(CC[C@@](C)([C@H]4CC[C@](O)(CC)[C@H](C)O4)O3)O2)[C@H](C)C[C@@H]1C (stereo partly drawn)
OUT: N

IN: Thanks! And CCOc1ccc(-n2nc(C(=O)Nc3cc(OC)c(OC)c(OC)c3)nc2-c2cc(OC)c(OC)c(OC)c2)cc1 ?
OUT: N

IN: Can you handle Nc1ccn(-c2ccc(Br)cc2)c(=O)n1 next?
OUT: N

IN: Now consider CN(C)C(=S)N=Nc1c(O)[nH]c2ccccc12 and answer again.
OUT: Y

IN: Moving on to CC(=O)Nc1ccc(-n2c(O)c(/C=N/NC(=O)Cc3ccccc3Nc3c(Cl)cccc3Cl)sc2=S)cc1
OUT: N

IN: Thanks! And CCOC(=O)n1cc(-c2nonc2-c2cn(C)c3ncccc23)c2ccccc21 ?
OUT: N

IN: Further, for Cc1nn(-c2ccc(F)cc2)c2ncnc(Oc3ccc(NC(=O)Nc4ccc(Cl)c(C(F)(F)F)c4)cc3)c12 ?
OUT: N

IN: Let us now turn to O=C1C=CC(=O)N1c1ccc2c(c1)Cc1cc(F)ccc1-2
OUT: N

IN: Same question, CC(=O)Oc1ccc(Cl)cc1CN(C(C)=O)C1CCCCC1 this time
OUT: N

IN: O=C1c2cc3c(cc2-c2c1c1ccc(Cl)cc1c(=O)n2CCCN1CCOCC1)OCO3 , same question.
OUT: N

IN: Now consider CCC#CC[C@H](O)C/C=C1/C(=O)C=C[C@@H]1C/C=C\CCCC(=O)OC and answer again.
OUT: Y

IN: Continue with COc1cc2nnc3c4cccnc4[nH]c3c2cc1OC
OUT: N

IN: Next up: N#Cc1cnn(-c2nc3c(Cl)cccc3s2)c1N
OUT: N

IN: Then this molecule: Cc1ccc2c(c1)C(=O)/C(=C/c1cccc(OCC(=O)c3ccc(Cl)cc3)c1)CS2
OUT: N

IN: O=c1ccccc(-c2ccc(-c3ccco3)cc2)c1O , same question.
OUT: N

IN: Ok, now CC(=O)NCC1c2c(n(C)c3c(Cl)c(Cl)ccc23)C(=O)NC1(C)C (stereo not drawn)
OUT: N

IN: c1ccc2[nH]c(-c3ccc(Nc4nc(N5CCCC5)nc5[nH]ncc45)cc3)nc2c1 , same question.
OUT: N

IN: # repeat for Nc1n[nH]c2cc(F)c([C@@H]3Nc4ccc5[nH]ncc5c4[C@H]4C5CCC(C5)[C@@H]34)cc12 (stereo partly drawn)
OUT: N

IN: // repeat for CC1CCNC(C)C1 (stereo not drawn) and report
OUT: N

IN: Now consider O=[N+]([O-])c1ccc(Nc2nc(NCCN3CCOCC3)ncc2[N+](=O)[O-])cc1 and answer again.
OUT: N

IN: Same again, this time with CN1CCN(CCCOc2cccc3nc(Nc4cc(Cl)cc(Cl)c4)ccc23)CC1
OUT: Y

IN: Next molecule up: CCN(CC)c1ccc2c(c1)Oc1nc(N)c(C#N)c(N)c1C2Sc1ccc(SC)cc1 (stereo not drawn)
OUT: Y

IN: Subsequent entry: OCC(O)c1nc2ccc3[nH]ncc3c2c2c1CCCC2 (stereo not drawn)
OUT: Y

IN: Next molecule: O=C1/C(=C/N2N=C(c3ccc4ccccc4c3)CC2c2ccccc2O)SC(=S)N1c1cccnc1 (stereo not drawn)
OUT: N

IN: How about this molecule: O=C(Cc1ccccc1Nc1c(Cl)cccc1Cl)NN1C(=O)/C(=C/c2ccc(Br)cc2)SC1=S
OUT: N

====

Field: growth. Provide a value for each of the molecules that follow.
System: SK-MEL-5 melanoma
Test: NCI-60 one-dose screen, 48 h (100 = growth as untreated, 0 = no growth, -100 = all killed)
Conditions: 10 µM unless noted
This is part of a sample that, as a whole, favours compounds with a hit. Of some 83,000 tested, about 20% had one in any assay. Active and inactive are the calls of the source. Rule for the calls: active = growth percent below 10; inactive = the rest.

IN: What growth value was documented for this molecule, Cc1cc(C)c2nc3nc(C)cc(C)c3c(N)c2c1 ?
OUT: 26.8% (inactive)

IN: Now this one: O=C(CCCCC(=O)N/N=C\c1ccccc1O)N/N=C\c1ccccc1O
OUT: -14.9% (active)

IN: Same lookup for COc1cc(C2CC(=O)c3ccccc3N2)cc(OC)c1OC (stereo not given) , please.
OUT: 99.5% (inactive)

IN: Request: Cn1c(NCCc2ccc(O)c(O)c2)nc2c1c(=O)n(Cc1ccc(Cl)c(Cl)c1)c(=O)n2C
OUT: 65.4% (inactive)

IN: Also need COc1ccc(CCNc2nc3c(c(=O)n(Cc4ccc(Br)cc4)c(=O)n3C)n2C)cc1OC , thanks.
OUT: 68% (inactive)

IN: Also, COc1ccc(C(=O)/C=C/c2cccnc2Nc2cc(OC)c(OC)c(OC)c2)cc1 please.
OUT: 43% (inactive)

IN: Proceed to CC(C)(C)N1CCC1CN (stereo not given)
OUT: 136% (inactive)

IN: Proceed to CON1C(=O)CC[C@]2(C)[C@H]3CC[C@@H]4C([C@@]5(C)CCC(=O)O5)CC[C@@]4(C)[C@]3(C)CC[C@H]2C1(C)C (stereo not given in full)
OUT: 98.4% (inactive)

IN: Next entry: Cc1ccc(C2=NN3C(C2)c2cc(Br)ccc2OC32CCN(Cc3ccccc3)CC2)o1 (stereo not given)
OUT: 92.1% (inactive)

IN: Another molecule to check: O=C(N=Nc1c(O)[nH]c2ccc(Br)cc12)c1cc(-c2ccccc2)on1
OUT: 99.9% (inactive)

====

Test system: SN12C renal
Test: NCI-60 one-dose screen, 48 h (100 = growth as untreated, 0 = no growth, -100 = all killed)
Conditions: 10 µM unless noted
About 83,000 compounds went through this panel and 20% of them were active in at least one assay; those are over-represented in the sample as a whole.
Task for the reader: assign each of the following compounds its reported growth.
Give a bare numeral; the unit % is implied.

IN: Given CCc1nnc(CNc2ccc(Cl)cc2)o1 , state its recorded growth.
OUT: 95.8

IN: Now this one: CC(C)n1c(/C=C/[C@@H](O)C[C@@H](O)CC(=O)O)c(-c2ccc(F)cc2)c2ccccc21
OUT: 36.4

IN: Now the same for CCCCN1CCCn2c1nc1c2c(=O)n(CCC)c(=O)n1CCC
OUT: 93.2

IN: // same read-out, input: C=CC(=O)Nc1cccc(-c2nc(SC)nc(Nc3ccccc3OC)c2C#N)c1
OUT: 48.4

IN: Request: C=C1c2nc3ccccc3n2C=C(c2cccc(Cl)c2)N1Cc1ccc(OC)cc1
OUT: 37
